Examples of molecules with documented helicity follow.
# RUN_DESCRIPTION: circular dichroism
# REPORTED_CONDITIONS: 10 mM phosphate buffered saline (par. 0128, each peptide; pH given only for 22 and 25, Fig 6B), pH 7.4, ns °C
Peptide text beside a SMILES is read from it.
REPORTED_METRIC: helicity (%)

>>> observed_value("CC(=O)N[C@H](C(=O)N[C@@H](CO)C(=O)N[C@@H](Cc1ccc(O)cc1)C(=O)N[C@@H](CC(=O)O)C(=O)N[C@@H](CS)C(=O)N[C@@H](CCC(=O)O)C(=O)N[C@H](C(=O)N[C@@H](CC(N)=O)C(=O)N[C@@H](C)C(N)=O)C(C)C)[C@@H](C)O [Compound 23] (Ac-TSYDCEVNA-NH2)")
14
>>> observed_value("CC(=O)NCC(=O)N[C@H](C(=O)N[C@@H](C)C(=O)N[C@@H](C)C(=O)N[C@@H](CC(=O)O)C(=O)N[C@@H](CS)C(=O)N[C@@H](CCC(=O)O)C(=O)N[C@@H](Cc1ccc(O)cc1)C(=O)N[C@@H](CC(N)=O)C(=O)N[C@@H](C)C(=O)N[C@@H](CCCNC(=N)N)C(N)=O)[C@@H](C)O [Compound 25] (Ac-GTAADCEYNAR-NH2)")
15
